assay: Solubility determination (Method B), neutral water; assay type: physicochemical; settings: distilled water, thermodynamic from solid; neutral water, 20° C., Method B (2 h orbital shaker); read-out: Aqueous Solubility (mg/mL @ 20° C.)
observed-property: solubility at 2 h (mg/mL)

compound | unit-abbrev | test-result
CN1c2ccccc2C(NCCCCCCC(=O)O)c2ccc(I)cc2S1(=O)=O.Cl (centres unmarked) [iodotianeptine, reference compound] | mg/mL | 2.3
CN1c2ccccc2C(NCCCCCCC(=O)O)c2cc(F)c(I)cc2S1(=O)=O.Cl (centres unmarked) | mg/mL | 5.7

###

target: human mu opioid receptor (MOR) (Homo sapiens, UniProt P35372); construct: expressed in transfected cells; host or cells: HEK-293T; test: BRET assay measuring G protein activation, agonist activity at human MOR; type: cell-based; settings: BRET G protein activation, HEK-293T cells; error ± SEM of 2 or more independent trials; read-out: Human MOR (EC50)
Sequence (P35372 whole entry): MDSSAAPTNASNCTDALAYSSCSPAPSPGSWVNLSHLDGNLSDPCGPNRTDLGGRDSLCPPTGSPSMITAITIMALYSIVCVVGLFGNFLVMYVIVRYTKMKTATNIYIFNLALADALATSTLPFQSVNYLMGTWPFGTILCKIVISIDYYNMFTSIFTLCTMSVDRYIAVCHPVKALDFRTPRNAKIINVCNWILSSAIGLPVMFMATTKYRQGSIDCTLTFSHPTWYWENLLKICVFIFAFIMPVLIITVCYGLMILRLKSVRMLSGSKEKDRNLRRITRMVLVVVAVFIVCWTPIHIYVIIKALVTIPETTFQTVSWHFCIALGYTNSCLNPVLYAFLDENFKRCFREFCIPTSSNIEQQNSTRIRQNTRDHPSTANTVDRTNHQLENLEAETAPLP
Field: label. Allowed values: satisfied (EC50 < 200 nM) or not satisfied (EC50 >= 200 nM).

molecule | target-desc | category
COCCCNC1c2ccccc2N(C)S(=O)(=O)c2ccccc21 (stereo not drawn) [Compound 16c, reference compound] | human mu opioid receptor (MOR) (Homo sapiens, UniProt P35372) | not satisfied
C#Cc1ccc2c(c1)S(=O)(=O)N(C)c1ccccc1C2NCCCCCCC(=O)O (stereo not drawn) | human mu opioid receptor (MOR) (Homo sapiens, UniProt P35372) | satisfied
CSc1ccc2c(c1)S(=O)(=O)N(C)c1ccccc1C2NCCCCCCC(=O)O (stereo not drawn) | human mu opioid receptor (MOR) (Homo sapiens, UniProt P35372) | satisfied
COCCCNC1c2ccccc2N(C)S(=O)(=O)c2cc(Cl)ccc21 (stereo not drawn) [Compound 16b, reference compound] | human mu opioid receptor (MOR) (Homo sapiens, UniProt P35372) | not satisfied
COCCCNC1c2ccccc2N(C)S(=O)(=O)c2ccc(Cl)cc21 (stereo not drawn) [Compound 16a, reference compound] | human mu opioid receptor (MOR) (Homo sapiens, UniProt P35372) | not satisfied
CCOC(=O)CCCCCCNC1c2ccccc2N(C)S(=O)(=O)c2cc(SC)ccc21 (stereo not drawn) | human mu opioid receptor (MOR) (Homo sapiens, UniProt P35372) | not satisfied

###

target: human mu opioid receptor (MOR) (Homo sapiens); construct: expressed in transfected cells; host or cells: HEK-293T; test: BRET assay measuring G protein activation, agonist activity at human MOR; assay type: cell-based
pEC50: −log10 of the molar value. Counter-ions that a name gives are not always drawn.
Decide by pEC50: equal to or exceeding 7 means 1, less means -1.

compound | category
CN1c2ccccc2C(NCCCCC(=O)O)c2cc(F)c(Br)cc2S1(=O)=O.Cl (centres unmarked) [Compound 9l, hydrochloride salt] | 1
CCOC(=O)CCCCCCNC1c2ccccc2N(C)S(=O)(=O)c2ccc(Cl)cc21 (centres unmarked) [Compound 15a, reference compound] | -1
CN1c2ccccc2C(NCCCCCCCC(=O)O)c2ccc(Br)cc2S1(=O)=O (centres unmarked) [Compound 9d, hydrochloride salt] | 1
CN1c2ccccc2C(NCCCCCCC(=O)O)c2cc(Cl)c(Cl)cc2S1(=O)=O.Cl (centres unmarked) [Compound 9i, hydrochloride salt] | -1
Cc1ccc2c(c1)S(=O)(=O)N(C)c1ccccc1C2NCCCCCCC(=O)O (centres unmarked) [3-Methyl-substituted Analog, reference compound] | -1
CN1c2ccccc2C(NCCCCCCC(=O)O)c2cc(F)c(I)cc2S1(=O)=O.Cl (centres unmarked) [Compound 9k, hydrochloride salt] | 1
CN1c2ccccc2C(NCCCCCCCCC(=O)O)c2ccc(I)cc2S1(=O)=O (centres unmarked) [Compound 9f, hydrochloride salt] | 1

###

assay: physchem; settings: 25 °C, pH 7, aqueous buffer, thermodynamic from solid
Structures can show the parent of a compound that is named as a salt.

compound | solubility (µg/mL)
CN1c2ccccc2C(NCCCCCCC(=O)O)c2ccc(Br)cc2S1(=O)=O.Cl (centres unmarked) [bromotianeptine, reference compound] | 620
CN1c2ccccc2C(NCCCCCCC(=O)O)c2cc(F)c(Cl)cc2S1(=O)=O.Cl (centres unmarked) | 70
CN1c2ccccc2C(NCCCCCCC(=O)O)c2cc(F)c(I)cc2S1(=O)=O.Cl (centres unmarked) | 390
CN1c2ccccc2C(NCCCCCCC(=O)O)c2cc(F)c(Br)cc2S1(=O)=O (centres unmarked) [Compound 9b, hydrochloride salt] | 840
CN1c2ccccc2C(NCCCCCCC(=O)O)c2ccc(I)cc2S1(=O)=O.Cl (centres unmarked) [iodotianeptine, reference compound] | 150

###

Below, each of the compounds is paired with its reported solubility value.
test: physchem; details: 25 °C, pH 1, simulated gastric fluid, thermodynamic from solid
Structures can show the parent of a compound that is named as a salt.
observed-property: solubility (µg/mL)

compound | observed-property | qualifier-sign | test-result
CN1c2ccccc2C(NCCCCCCC(=O)O)c2cc(F)c(I)cc2S1(=O)=O.Cl (centres unmarked) [Compound 9k] | solubility | = | 2700
CN1c2ccccc2C(NCCCCCCC(=O)O)c2cc(F)c(Br)cc2S1(=O)=O (centres unmarked) [Compound 9b, hydrochloride salt] | solubility | = | 1100
CN1c2ccccc2C(NCCCCCCC(=O)O)c2cc(F)c(Cl)cc2S1(=O)=O.Cl (centres unmarked) [Compound 9j] | solubility | = | 5300
CN1c2ccccc2C(NCCCCCCC(=O)O)c2ccc(I)cc2S1(=O)=O.Cl (centres unmarked) [iodotianeptine, reference compound] | solubility | < | 100
CN1c2ccccc2C(NCCCCCCC(=O)O)c2ccc(Br)cc2S1(=O)=O.Cl (centres unmarked) [bromotianeptine, reference compound] | solubility | < | 100

###

biological target: human delta opioid receptor (DOR) (Homo sapiens); construct: expressed in transfected cells; experiment: BRET assay measuring G protein activation, agonist activity at human DOR; assay type: cell-based
pEC50: −log10 of the molar value. Where a name gives a salt, the structure may show the parent alone.

compound | qualifier-sign | pEC50
CN1c2ccccc2C(NCCCCCCCCCCC(=O)O)c2ccc(I)cc2S1(=O)=O (centres unmarked) [Compound 9h, hydrochloride salt] | = | 6.15
CN1c2ccccc2C(NCCCCCCCCC(=O)O)c2ccc(I)cc2S1(=O)=O (centres unmarked) [Compound 9f, hydrochloride salt] | = | 6.28
CN1c2ccccc2C(NCCCCCCC(=O)O)c2cc(F)c(Br)cc2S1(=O)=O (centres unmarked) [Compound 9b, hydrochloride salt] | = | 4.94
CN1c2ccccc2C(NCCCCCCCC(=O)O)c2ccc(Br)cc2S1(=O)=O (centres unmarked) [Compound 9d, hydrochloride salt] | = | 5.77
Cc1ccc2c(c1)S(=O)(=O)N(C)c1ccccc1C2NCCCCCCC(=O)O (centres unmarked) [3-Methyl-substituted Analog, reference compound] | < | 5.00

###

Below, each of the molecules is paired with its reported pEC50 value.
target: human delta opioid receptor (DOR) (Homo sapiens, UniProt P41143); construct: expressed in transfected cells; assay: BRET assay measuring G protein activation, agonist activity at human DOR; assay type: cell-based; settings: BRET G protein activation; error ± SEM of 2 or more independent trials; read-out: Human DOR (EC50)
Sequence (P41143 whole entry): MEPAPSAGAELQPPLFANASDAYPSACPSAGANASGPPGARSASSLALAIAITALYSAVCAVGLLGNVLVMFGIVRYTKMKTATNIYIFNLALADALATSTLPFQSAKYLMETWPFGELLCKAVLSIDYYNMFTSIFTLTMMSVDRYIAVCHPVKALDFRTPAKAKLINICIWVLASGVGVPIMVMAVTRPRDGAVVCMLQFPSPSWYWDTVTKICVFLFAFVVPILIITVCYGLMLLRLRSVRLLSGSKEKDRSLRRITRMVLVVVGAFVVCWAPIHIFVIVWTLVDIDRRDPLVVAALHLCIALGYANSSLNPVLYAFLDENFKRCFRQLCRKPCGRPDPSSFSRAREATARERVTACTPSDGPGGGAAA
pEC50: −log10 of the molar value.

molecule | pEC50
C#Cc1ccc2c(c1)S(=O)(=O)N(C)c1ccccc1C2NCCCCCCC(=O)O (stereo not drawn) | 5.23
CCOC(=O)CCCCCCNC1c2ccccc2N(C)S(=O)(=O)c2cc(SC)ccc21 (stereo not drawn) | 5.15
CSc1ccc2c(c1)S(=O)(=O)N(C)c1ccccc1C2NCCCCCCC(=O)O (stereo not drawn) | 5.69

###

target: human mu opioid receptor (MOR) (Homo sapiens); construct: expressed in transfected cells; host or cells: HEK-293T; assay: BRET assay measuring G protein activation, agonist activity at human MOR; type: cell-based
Where a name gives a salt, the structure may show the parent alone.
Below, each of the molecules is paired with its reported EC50 value.

molecule | unit-abbrev | EC50
CN1c2ccccc2C(NCCCCCCC(=O)O)c2cc(F)c(Br)cc2S1(=O)=O (stereo not shown) [Compound 9b, hydrochloride salt] | nM | 83.1
CN1c2ccccc2C(NCCCCCCCCCCC(=O)O)c2ccc(I)cc2S1(=O)=O (stereo not shown) [Compound 9h, hydrochloride salt] | nM | 110
CN1c2ccccc2C(NCCCCCCC(=O)O)c2cc(F)c(Cl)cc2S1(=O)=O.Cl (stereo not shown) [Compound 9j, hydrochloride salt] | nM | 129
CCOC(=O)CCCCCCNC1c2ccccc2N(C)S(=O)(=O)c2ccccc21 (stereo not shown) [Compound 15c, reference compound] | nM | 156
